- Test summary: NCI Yeast Anticancer Drug Screen. Data for the mgt1 strain (AID 153)
- Conditions: S. cerevisiae mgt1 mutant growth inhibition; at 1.2 µM; hits give high values
This is part of a sample that, as a whole, favours compounds with a hit. Of some 79,000 tested, about 15% had one in any assay.
Quantity kind: growth inhibition (%)
Please state the figure in %; there is no need to write the unit.

Would you please look over these solved cases?
CC1=NN(C(=O)CC(=O)NC(=O)/C=C\c2ccccc2)C(=O)C1N=Nc1ccc([N+](=O)[O-])cc1 (stereo unspecified) : 1
COc1ccc(C(OCC2OC(n3cnc4c(=O)n(Cc5ccccc5[N+](=O)[O-])nnc43)C(O)C2O)(c2ccccc2)c2ccc(OC)cc2)cc1 (stereo unspecified) : 9
S=C1N(c2ccc(Cl)cc2)C2=C(N=Nc3ccccc3)C(=Nc3ccccc3S2)N1c1ccccn1 : 13
CCCCCCCCN1COCC(COc2ccccc2C)OC1 (stereo unspecified) : -1

Please look up its growth inhibition: `COC(=O)C(Cl)(Cl)N=Nc1c(Cl)cc(Cl)c(C)c1Cl`
-50

Then what about the molecule `CCCN=Cc1cc(Cc2ccc(O)c(C=NCCC)c2)ccc1O` ?
45

Also check `CN(N=O)C(=O)Nc1ccc(C(=O)O)cc1`
0

Quick one: `CC(C)S(=O)(=O)/C=C\S(=O)(=O)C(C)C`
1

// repeat for `N#[N+]c1c([O-])c2ccccc2c2ccccc12` and report
4

Field entry: NC(CS)C(=O)NCCNc1ccc(NCCNC(=O)C(N)CS)c2c1C(=O)c1c(O)ccc(O)c1C2=O (stereo unspecified)
7

How about this molecule: `CCOC(=S)SSSC(=S)OCC`
-1
